Experiment: in vitro
Details: African green monkey, MERS-CoV CC50 Vero 76
TEST_READOUT: CC50 (µM)
Return type: number; implicit unit µM.

stdin: Sample `C=C(OCC)c1ncnc2c1ccn2[C@@H]1O[C@H](CO)[C@@H](O)[C@H]1O` — what was its CC50?
stdout: 52

stdin: Look up CC50 for this compound: `OC[C@H]1O[C@@H](n2ccc3c(C#Cc4ccc(Cl)cc4)ncnc32)[C@H](O)[C@@H]1O`
stdout: 32

stdin: Fill in: CC50 of `CCc1ncnc2c1c(C#CC1CC1)cn2[C@@H]1O[C@H](CO)[C@@H](O)[C@H]1O` is ___
stdout: 100

stdin: Data request, read-out CC50, for `CC#Cc1ncnc2c1ccn2[C@@H]1O[C@H](CO)[C@@H](O)[C@H]1O`
stdout: 3.2

stdin: Need CC50, item `OC[C@H]1O[C@@H](n2ccc3c(C#Cc4cccc(F)c4)ncnc32)[C@H](O)[C@@H]1O`
stdout: 32

stdin: Which measured CC50 value corresponds to `OC[C@H]1O[C@@H](n2ccc3c(C#Cc4ccc(F)cc4)ncnc32)[C@H](O)[C@@H]1O` ?
stdout: 32

* * *

Kindly supply the reported CC50 values for the records listed here.
System: Vero 76 cells
Settings: read-out: MERS-CoV CC50 Vero 76; Neutral Red; MERS-CoV screen

stdin: Using the record for `OC[C@H]1O[C@@H](n2ccc3c(C#CC4CCCC4)ncnc32)[C@H](O)[C@@H]1O` , report its CC50.
stdout: 49 µM

stdin: Could you share which CC50 value was measured for `CCc1ncnc2c1c(Br)cn2[C@@H]1O[C@H](CO)[C@@H](O)[C@H]1O` ?
stdout: > 100 µM

stdin: Return reported CC50; argument: `CCCC#Cc1ncnc2c1ccn2[C@@H]1O[C@H](CO)[C@@H](O)[C@H]1O`
stdout: 110 µM

stdin: Requested read-out: CC50. Entry: `CCc1ncnc2c1c(I)cn2[C@@H]1O[C@H](CO)[C@@H](O)[C@H]1O`
stdout: > 100 µM

stdin: Request the reported CC50 associated with `CCc1ncnc2c1c(F)cn2[C@@H]1O[C@H](CO)[C@@H](O)[C@H]1O`
stdout: 46 µM

stdin: Fill blank: measured CC50 of the molecule OC[C@H]1O[C@@H](n2ccc3c(C4CC4)ncnc32)[C@H](O)[C@@H]1O [3.1a, reference compound] is ____.
stdout: > 100 µM

stdin: Look up CC50: `CC#Cc1ncnc2c1ccn2[C@@H]1O[C@H](CO)[C@@H](O)[C@H]1O`
stdout: 3.3 µM

* * *

System: Influenza A (H3N2)
Assay: microbe, parasite or virus in culture
Type: cell-based
Conditions: H3N2, MDCK, read-out: EC50 Influenza A (H3N2)
TEST_READOUT: EC50

stdin: What value of EC50 on Influenza A (H3N2) does `CCc1ncnc2c1c(F)cn2[C@@H]1O[C@H](CO)[C@@H](O)[C@H]1O` have?
stdout: < 100 nM

* * *

Assay: in vitro
Conditions: African green monkey, CC50
TEST_READOUT: CC50

stdin: CC50 lookup needed for `CCc1ncnc2c1c(C#CC1CC1)cn2[C@@H]1O[C@H](CO)[C@@H](O)[C@H]1O` , thanks.
stdout: > 100 µM

stdin: I have this molecule here, `OC[C@H]1O[C@@H](n2ccc3c(C#Cc4ccc(F)cc4)ncnc32)[C@H](O)[C@@H]1O` , and I need its recorded CC50.
stdout: 36 µM

stdin: Suppose we examine the molecule CCOC(=O)c1ccc(OCCC2CCN(c3ccc(C)nn3)CC2)cc1 [Pirodavir, pirodavir, reference compound] ; what CC50 value has been reported?
stdout: > 27 µM

stdin: Which CC50 value is on record for `CCCC#Cc1ncnc2c1ccn2[C@@H]1O[C@H](CO)[C@@H](O)[C@H]1O` ?
stdout: > 100 µM

stdin: So what's the measured CC50 for this one? `CCc1ncnc2c1c(F)cn2[C@@H]1O[C@H](CO)[C@@H](O)[C@H]1O`
stdout: > 100 µM

* * *

Assay: in vitro
Conditions: human, Yellow fever virus CC50 Huh7
Assign CC50 to each entry below.

stdin: Value lookup for CC50; key = `C=C(OCC)c1ncnc2c1ccn2[C@@H]1O[C@H](CO)[C@@H](O)[C@H]1O`
stdout: 28 µM

stdin: Fill in the blank: the reported CC50 of `C#Cc1cn([C@@H]2O[C@H](CO)[C@@H](O)[C@H]2O)c2ncnc(CC)c12` is ____.
stdout: > 100 µM

stdin: Item under review: `CCc1ncnc2c1c(Cl)cn2[C@@H]1O[C@H](CO)[C@@H](O)[C@H]1O` . Reported CC50?
stdout: > 100 µM

stdin: I have this compound here, `OC[C@H]1O[C@@H](n2ccc3c(C#Cc4ccc(F)cc4)ncnc32)[C@H](O)[C@@H]1O` , and I need its recorded CC50.
stdout: 32 µM

stdin: Which CC50 reading was recorded for the compound `CCc1ncnc2c1c(Br)cn2[C@@H]1O[C@H](CO)[C@@H](O)[C@H]1O` ?
stdout: > 100 µM

stdin: Looking for the measured CC50 of `OC[C@H]1O[C@@H](n2ccc3c(C#Cc4cccc(F)c4)ncnc32)[C@H](O)[C@@H]1O` , can you help?
stdout: 32 µM

* * *

Could you please report measured CC50 for the items listed next?
Assay: in vitro
Settings: human, CC50

stdin: Fill in the blank: the reported CC50 of `CC#Cc1ncnc2c1ccn2[C@@H]1O[C@H](CO)[C@@H](O)[C@H]1O` is ____.
stdout: 3.6 µM

stdin: What measured CC50 goes with `OC[C@H]1O[C@@H](n2ccc3c(C#Cc4cccc(F)c4)ncnc32)[C@H](O)[C@@H]1O` ?
stdout: 24 µM

stdin: Any idea what CC50 was measured for OC[C@H]1O[C@@H](n2ccc3c(C4CC4)ncnc32)[C@H](O)[C@@H]1O [3.1a, reference compound] ?
stdout: > 100 µM

stdin: So what's the measured CC50 for this one? `CCCC#Cc1ncnc2c1ccn2[C@@H]1O[C@H](CO)[C@@H](O)[C@H]1O`
stdout: 12 µM

stdin: // lookup CC50 for `CC(C)C#Cc1ncnc2c1ccn2[C@@H]1O[C@H](CO)[C@@H](O)[C@H]1O`
stdout: 24 µM

stdin: Give its CC50 value. Item: `CCc1ncnc2c1c(Cl)cn2[C@@H]1O[C@H](CO)[C@@H](O)[C@H]1O`
stdout: 68 µM

stdin: Param item = `CCc1ncnc2c1c(I)cn2[C@@H]1O[C@H](CO)[C@@H](O)[C@H]1O` ; retrieve measured CC50.
stdout: 68 µM

stdin: Look at this compound and give its reported CC50. `C=C(OCC)c1ncnc2c1ccn2[C@@H]1O[C@H](CO)[C@@H](O)[C@H]1O`
stdout: 8.5 µM

stdin: What value of CC50 has been recorded for this entry: `CCc1ncnc2c1c(Br)cn2[C@@H]1O[C@H](CO)[C@@H](O)[C@H]1O`
stdout: 68 µM

stdin: // returns reported CC50 for input `OC[C@H]1O[C@@H](n2ccc3c(C#Cc4ccc(Cl)cc4)ncnc32)[C@H](O)[C@@H]1O`
stdout: 12 µM

* * *

Tested on: chikungunya virus (S27 strain)
Experiment: microbe, parasite or virus in culture
Type: cell-based
Details: read-out: EC50 chikungunya virus
TEST_READOUT: EC50

stdin: # get_value(readout='EC50', item= OC[C@H]1O[C@@H](n2ccc3c(C#Cc4cccc(F)c4)ncnc32)[C@H](O)[C@@H]1O [3.1i] )
stdout: > 30 µM

stdin: I have this compound here, OC[C@H]1O[C@@H](n2ccc3c(C#CC4CC4)ncnc32)[C@H](O)[C@@H]1O [3.1c] , and I need its recorded EC50.
stdout: > 100 µM

stdin: What does the data say about its EC50? Entry: OC[C@H]1O[C@@H](n2ccc3c(C#CC4CCCC4)ncnc32)[C@H](O)[C@@H]1O [3.1g]
stdout: > 100 µM

stdin: // lookup EC50 for OC[C@H]1O[C@@H](n2ccc3c(C#Cc4ccc(Cl)cc4)ncnc32)[C@H](O)[C@@H]1O [3.1j]
stdout: > 23 µM

stdin: Name the reported EC50 value associated with the compound OC[C@H]1O[C@@H](n2ccc3c(C#Cc4ccc(F)cc4)ncnc32)[C@H](O)[C@@H]1O [3.1h]
stdout: 32 µM

* * *

Assay: in vitro
Conditions: African green monkey, Tacaribe virus CC50 Vero
TEST_READOUT: CC50 (µM)
Give a bare numeral; the unit µM is implied.

stdin: Look at this compound and give its reported CC50. `OC[C@H]1O[C@@H](n2ccc3c(C#Cc4ccc(Cl)cc4)ncnc32)[C@H](O)[C@@H]1O`
stdout: 8.6

stdin: Fill in the blank: the reported CC50 of `C=C(OCC)c1ncnc2c1ccn2[C@@H]1O[C@H](CO)[C@@H](O)[C@H]1O` is ____.
stdout: 100

stdin: What does the data say about its CC50? Entry: `CCc1ncnc2c1c(F)cn2[C@@H]1O[C@H](CO)[C@@H](O)[C@H]1O`
stdout: 63

stdin: Could you tell me which CC50 is on file for `CCCC#Cc1ncnc2c1ccn2[C@@H]1O[C@H](CO)[C@@H](O)[C@H]1O` ?
stdout: 10

stdin: Looking for the measured CC50 of `CC(C)C#Cc1ncnc2c1ccn2[C@@H]1O[C@H](CO)[C@@H](O)[C@H]1O` , can you help?
stdout: 10

stdin: Which CC50 reading was recorded for the compound `CC#Cc1ncnc2c1ccn2[C@@H]1O[C@H](CO)[C@@H](O)[C@H]1O` ?
stdout: 5.2

stdin: Given `OC[C@H]1O[C@@H](n2ccc3c(C#Cc4cccc(F)c4)ncnc32)[C@H](O)[C@@H]1O` , state its recorded CC50.
stdout: 12
